Values were extracted from the supplement of paper PMC5998384.

test system: HeLa Kyoto; assay: solubility change mitosis vs G1/S (difference of NP-40 vs SDS log2 ratios) (log2 ratio difference); higher = more soluble in mitosis
Hi there, I'd appreciate the recorded solubility change mitosis (log2) for every entry that follows.
Numbers only.

Check out these entries, answers already filled in.
MSAKDERAREILRGFKLNWMNLRDAETGKILWQGTEDLSVPGVEHEARVPKKILKCKAVSRELNFSSTEQMEKFRLEQKVYFKGQCLEEWFFEFGFVIPNSTNTWQSLIEAAPESQMMPASVLTGNVIIETKFFDDDLLVSTSRVRLFYV [PDE6D]; -0.258
MAATASAGAGGIDGKPRTSPKSVKFLFGGLAGMGATVFVQPLDLVKNRMQLSGEGAKTREYKTSFHALTSILKAEGLRGIYTGLSAGLLRQATYTTTRLGIYTVLFERLTGADGTPPGFLLKAVIGMTAGATGAFVGTPAEVALIRMTADGRLPADQRRGYKNVFNALIRITREEGVLTLWRGCIPTMARAVVVNAAQLASYSQSKQFLLDSGYFSDNILCHFCASMISGLVTTAASMPVDIAKTRIQNMRMIDGKPEYKNGLDVLFKVVRYEGFFSLWKGFTPYYARLGPHTVLTFIFLEQMNKAYKRLFLSG [SLC25A11]; -0.187

Now for the sequence whose solubility change mitosis (log2) we want.
Query string: Fill in the recorded solubility change mitosis (log2) for this sequence, with HeLa Kyoto as test system: MAAACRSVKGLVAVITGGASGLGLATAERLVGQGASAVLLDLPNSGGEAQAKKLGNNCVFAPADVTSEKDVQTALALAKGKFGRVDVAVNCAGIAVASKTYNLKKGQTHTLEDFQRVLDVNLMGTFNVIRLVAGEMGQNEPDQGGQRGVIINTASVAAFEGQVGQAAYSASKGGIVGMTLPIARDLAPIGIRVMTIAPGLFGTPLLTSLPEKVCNFLASQVPFPSRLGDPAEYAHLVQAIIENPFLNGEVIRLDGAIRMQP [HSD17B10]
Result string: -0.041

====

test system: HeLa Kyoto; test: thermal stability score vs G1/S (z-score of summed log2 fold changes over temperatures); higher = more thermally stable than in G1/S; conditions: cell cycle stage: mitosis
Measured property: thermal stability score
Numbers only.

Each of the following entries comes with a recorded value; kindly state thermal stability score for each.
1. MAQSRDGGNPFAEPSELDNPFQDPAVIQHRPSRQYATLDVYNPFETREPPPAYEPPAPAPLPPPSAPSLQPSRKLSPTEPKNYGSYSTQASAAAATAELLKKQEELNRKAEELDRRERELQHAALGGTATRQNNWPPLPSFCPVQPCFFQDISMEIPQEFQKTVSTMYYLWMCSTLALLLNFLACLASFCVETNNGAGFGLSILWVLLFTPCSFVCWYRPMYKAFRSDSSFNFFVFFFIFFVQDVLFVLQAIGIPGWGFSGWISALVVPKGNTAVSVLMLLVALLFTGIAVLGIVMLKRIHSLYRRTGASFQKAQQEFAAGVFSNPAVRTAAANAAAGAAENAFRAP [SCAMP3]
2. MAVTALAARTWLGVWGVRTMQARGFGSDQSENVDRGAGSIREAGGAFGKREQAEEERYFRAQSREQLAALKKHHEEEIVHHKKEIERLQKEIERHKQKIKMLKHDD [ATPIF1]
3. MIVQRVVLNSRPGKNGNPVAENFRMEEVYLPDNINEGQVQVRTLYLSVDPYMRCRMNEDTGTDYITPWQLSQVVDGGGIGIIEESKHTNLTKGDFVTSFYWPWQTKVILDGNSLEKVDPQLVDGHLSYFLGAIGMPGLTSLIGIQEKGHITAGSNKTMVVSGAAGACGSVAGQIGHFLGCSRVVGICGTHEKCILLTSELGFDAAINYKKDNVAEQLRESCPAGVDVYFDNVGGNISDTVISQMNENSHIILCGQISQYNKDVPYPPPLSPAIEAIQKERNITRERFLVLNYKDKFEPGILQLSQWFKEGKLKIKETVINGLENMGAAFQSMMTGGNIGKQIVCISEEISL [PTGR2]
4. MAAAAVSGALGRAGWRLLQLRCLPVARCRQALVPRAFHASAVGLRSSDEQKQQPPNSFSQQHSETQGAEKPDPESSHSPPRYTDQGGEEEEDYESEEQLQHRILTAALEFVPAHGWTAEAIAEGAQSLGLSSAAASMFGKDGSELILHFVTQCNTRLTRVLEEEQKLVQLGQAEKRKTDQFLRDAVETRLRMLIPYIEHWPRALSILMLPHNIPSSLSLLTSMVDDMWHYAGDQSTDFNWYTRRAMLAAIYNTTELVMMQDSSPDFEDTWRFLENRVNDAMNMGHTAKQVKSTGEALVQGLMGAAVTLKNLTGLNQRR [COQ9]
5. MAAEDELQLPRLPELFETGRQLLDEVEVATEPAGSRIVQEKVFKGLDLLEKAAEMLSQLDLFSRNEDLEEIASTDLKYLLVPAFQGALTMKQVNPSKRLDHLQRAREHFINYLTQCHCYHVAEFELPKTMNNSAENHTANSSMAYPSLVAMASQRQAKIQRYKQKKELEHRLSAMKSAVESGQADDERVREYYLLHLQRWIDISLEEIESIDQEIKILRERDSSREASTSNSSRQERPPVKPFILTRNMAQAKVFGAGYPSLPTMTVSDWYEQHRKYGALPDQGIAKAAPEEFRKAAQQQEEQEEKEEEDDEQTLHRAREWDDWKDTHPRGYGNRQNMG [IGBP1]
6. MAARVLRARGAAWAGGLLQRAAPCSLLPRLRTWTSSSNRSREDSWLKSLFVRKVDPRKDAHSNLLAKKETSNLYKLQFHNVKPECLEAYNKICQEVLPKIHEDKHYPCTLVGTWNTWYGEQDQAVHLWRYEGGYPALTEVMNKLRENKEFLEFRKARSDMLLSRKNQLLLEFSFWNEPVPRSGPNIYELRSYQLRPGTMIEWGNYWARAIRFRQDGNEAVGGFFSQIGQLYMVHHLWAYRDLQTREDIRNAAWHKHGWEELVYYTVPLIQEMESRIMIPLKTSPLQ [GBAS]
7. MEESGYESVLCVKPDVHVYRIPPRATNRGYRAAEWQLDQPSWSGRLRITAKGQMAYIKLEDRTSGELFAQAPVDQFPGTAVESVTDSSRYFVIRIEDGNGRRAFIGIGFGDRGDAFDFNVALQDHFKWVKQQCEFAKQAQNPDQGPKLDLGFKEGQTIKLNIANMKKKEGAAGNPRVRPASTGGLSLLPPPPGGKTSTLIPPPGEQLAVGGSLVQPAVAPSSGGAPVPWPQPNPATADIWGDFTKSTGSTSSQTQPGTGWVQF [NECAP2]

Result string:
[0.091, -2.08, -0.682, 0.754, -0.0586, -0.959, -1.02]

Required: thermal stability score, one value per sequence below.
1. MAAAVAAAGAGEPQSPDELLPKGDAEKPEEELEEDDDEELDETLSERLWGLTEMFPERVRSAAGATFDLSLFVAQKMYRFSRAALWIGTTSFMILVLPVVFETEKLQMEQQQQLQQRQILLGPNTGLSGGMPGALPSLPGKI [TOMM22]
2. MGRLDGKVIILTAAAQGIGQAAALAFAREGAKVIATDINESKLQELEKYPGIQTRVLDVTKKKQIDQFANEVERLDVLFNVAGFVHHGTVLDCEEKDWDFSMNLNVRSMYLMIKAFLPKMLAQKSGNIINMSSVASSVKGVVNRCVYSTTKAAVIGLTKSVAADFIQQGIRCNCVCPGTVDTPSLQERIQARGNPEEARNDFLKRQKTGRFATAEEIAMLCVYLASDESAYVTGNPVIIDGGWSL [BDH2]
3. MVFPAKRFCLVPSMEGVRWAFSCGTWLPSRAEWLLAVRSIQPEEKERIGQFVFARDAKAAMAGRLMIRKLVAEKLNIPWNHIRLQRTAKGKPVLAKDSSNPYPNFNFNISHQGDYAVLAAEPELQVGIDIMKTSFPGRGSIPEFFHIMKRKFTNKEWETIRSFKDEWTQLDMFYRNWALKESFIKAIGVGLGFELQRLEFDLSPLNLDIGQVYKETRLFLDGEEEKEWAFEESKIDEHHFVAVALRKPDGSRHQDVPSQDDSKPTQRQFTILNFNDLMSSAVPMTPEDPSFWDCFCFTEEIPIRNGTKS [AASDHPPT]

Result string:
1: -4.82; 2: -0.29; 3: -0.453
